- System name: Recombinant human PKC-delta (His-tagged 345-676) (Homo sapiens (Human), UniProt Q05655)
- Sequence (Q05655 345-676): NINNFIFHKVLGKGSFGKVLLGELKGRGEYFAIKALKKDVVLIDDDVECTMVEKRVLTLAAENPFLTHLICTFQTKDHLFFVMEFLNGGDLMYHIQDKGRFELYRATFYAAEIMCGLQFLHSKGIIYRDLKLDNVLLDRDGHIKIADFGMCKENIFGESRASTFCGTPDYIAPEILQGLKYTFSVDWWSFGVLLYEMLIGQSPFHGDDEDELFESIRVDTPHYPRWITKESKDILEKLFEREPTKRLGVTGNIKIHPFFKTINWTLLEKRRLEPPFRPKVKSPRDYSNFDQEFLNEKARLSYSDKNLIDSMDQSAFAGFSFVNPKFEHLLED
- Test protocol: PKC-delta inhibition assay (HTRF KinEASE kit), PKC-theta/PKC-delta selectivity
- Assay type: biochemical
- Recorded conditions: ratio, PKC-theta over PKC-delta, HTRF assays
Label condition not met if PKC-theta/PKC-delta selectivity falls below 10; label condition met in every other case.

Look over these answered cases.
- CC1(C)C(=O)Nc2nccc(-c3nn([C@H]4CC[C@H](N)CC4)c4ccccc34)c21: condition met
- CC1(C)C(=O)Nc2nccc(-c3cn(C4(CC#N)CCC4)c4ccccc34)c21: condition not met
- CC1(C)C(=O)Nc2nccc(-c3nn(CC4(F)CCNC4)c4ccccc34)c21 (stereo not drawn): condition met

Does the molecule CC1(C)C(=O)Nc2nccc(-c3nn(C4(CC#N)CNC4)c4ccccc34)c21 have recorded PKC-theta/PKC-delta selectivity that is 10 or more?
condition not met

* * *

- System name: Recombinant human PKC-theta (His-tagged 362-706) (Homo sapiens (Human), UniProt Q04759)
- Sequence (Q04759 362-706): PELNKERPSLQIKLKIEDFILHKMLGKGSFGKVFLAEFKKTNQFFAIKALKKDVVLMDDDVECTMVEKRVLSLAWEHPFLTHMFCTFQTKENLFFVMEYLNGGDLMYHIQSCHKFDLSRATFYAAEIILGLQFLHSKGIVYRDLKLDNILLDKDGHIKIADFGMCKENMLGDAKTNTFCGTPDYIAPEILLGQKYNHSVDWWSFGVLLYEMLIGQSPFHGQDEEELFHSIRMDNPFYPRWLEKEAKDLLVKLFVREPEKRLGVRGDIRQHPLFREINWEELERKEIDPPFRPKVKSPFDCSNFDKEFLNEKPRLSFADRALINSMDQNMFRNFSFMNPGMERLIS
- Test protocol: PKC-theta inhibition assay (HTRF KinEASE kit)
- Assay type: biochemical
- Recorded conditions: ATP 6.5 μM
Reported PKC-theta HTRF pIC50 by item:
// keep it numeric: no unit symbol after the value

Worked cases, PKC-theta HTRF pIC50 given:
* CC1(C)C(=O)Nc2nccc(-c3nn(C4(CC#N)CNC4)c4ccccc34)c21 | 8.2
* CC1(C)C(=O)Nc2nccc(-c3nn([C@H]4CC[C@H](N)CC4)c4ccccc34)c21 | 9.4
* CC1(O)C(=O)Nc2nccc(-c3nn(C4CCNCC4)c4ccccc34)c21 (stereo not shown) | 8.5

The reported value for CCC1(O)C(=O)Nc2nccc(-c3nn(C4(CC#N)CCC4)c4ccccc34)c21 (stereo not shown) in terms of PKC-theta HTRF pIC50 is 9.3

Lab note: CC1(C)C(=O)Nc2nccc(-c3nn(C[C@@]4(C)COCCN4)c4ccccc34)c21 (single isomer, unassigned) gave PKC-theta HTRF pIC50 of 8.9

Memo: COC1(C)C(=O)Nc2nccc(-c3nn(CC4(F)CCCNC4)c4ccccc34)c21 (stereo not shown) , reported PKC-theta HTRF pIC50: 7.5

Lab note: measured PKC-theta HTRF pIC50 of CC1(C)C(=O)Nc2nccc(-c3nn(C4(CC#N)COC4)c4ccccc34)c21 was 7.4

* * *

- System name: Recombinant human PKC-theta (His-tagged 362-706) (Homo sapiens (Human), UniProt Q04759)
- Test protocol: PKC-theta inhibition assay (HTRF KinEASE kit)
- Assay type: biochemical
- Recorded conditions: ATP 6.5 μM, binned A to H, read-out: PKC-theta HTRF pIC50 (binned) (converted)
Where a name gives a salt, the structure may show the parent alone.
# IC50 listing for each entry below

Recombinant human PKC-theta (His-tagged 362-706) (Homo sapiens (Human), UniProt Q04759) assay, compound CC[C@]1(C)C(=O)Nc2nccc(-c3nn([C@@H]4CCNC[C@@H]4F)c4ccccc34)c21 (single isomer, unassigned) , recorded IC50 = ≤ 1 nM

The compound CC1(C)C(=O)Nc2nccc(-c3cn(C4(CC#N)CCC4)c4ccccc34)c21 , tested on Recombinant human PKC-theta (His-tagged 362-706) (Homo sapiens (Human), UniProt Q04759), showed IC50 of 31.6 to 100 nM

Measured on Recombinant human PKC-theta (His-tagged 362-706) (Homo sapiens (Human), UniProt Q04759), O=C1Nc2nccc(-c3nn(C4(CO)CCNC4)c4cc(F)ccc34)c2C12CCCC2 (stereo not shown) [Example 55, dihydrochloride] has a documented IC50 of 3.16 to 10 nM

Form: item CC[C@@]1(OC)C(=O)Nc2nccc(-c3nn(CC4(F)CCNCC4)c4ccccc34)c21 (single isomer, unassigned) ; test system Recombinant human PKC-theta (His-tagged 362-706) (Homo sapiens (Human), UniProt Q04759); IC50: 3.16 to 10 nM

I looked up CC1(C)C(=O)Nc2nccc(-c3nn([C@@H]4CCNC4)c4ccccc34)c21 and its IC50 for Recombinant human PKC-theta (His-tagged 362-706) (Homo sapiens (Human), UniProt Q04759) was 1 to 3.16 nM

Kindly note: Recombinant human PKC-theta (His-tagged 362-706) (Homo sapiens (Human), UniProt Q04759), CCC1(C)C(=O)Nc2nccc(-c3nn([C@@H]4CCNC[C@@H]4F)c4ccccc34)c21 (stereo partly shown) , IC50 value reported: 3.16 to 10 nM

I looked up CC1(O)C(=O)Nc2nccc(-c3nn([C@H]4CCNC[C@@H]4F)c4ccccc34)c21 (stereo partly shown) and its IC50 for Recombinant human PKC-theta (His-tagged 362-706) (Homo sapiens (Human), UniProt Q04759) was 3.16 to 10 nM

* * *

- Test system: IL-2 secretion by human effector memory T cells (TEM)
- Test protocol: Effector memory T cells IL-2 release assay
- Assay type: cell-based
- Recorded conditions: T-cell; human CD4+ TEM cells, CD3/CD28 bead stimulation, 24 h; binned A to G; read-out: PKC-theta IL2 pIC50 (binned) (converted)
Some molecules, each annotated with its measured IC50.

# annotated cases, reported IC50 shown
- CN1CCOCC1(C)Cn1nc(-c2ccnc3c2C(C)(C)C(=O)N3)c2ccccc21 (stereo not drawn): > 1000 nM
- C[C@@]1(O)C(=O)Nc2nccc(-c3nn(C4(CC#N)CNC4)c4ccccc34)c21 (single isomer, unassigned): 100 to 316 nM
- CC[C@@]1(C)C(=O)Nc2nccc(-c3nn([C@H]4CCNC[C@H]4F)c4ccc(F)cc34)c21 (single isomer, unassigned): 316 to 1000 nM
- CC1(C)C(=O)Nc2nccc(-c3nn([C@H]4CC[C@H](N)CC4)c4ccccc34)c21: 10 to 31.6 nM
- CC1(C)C(=O)Nc2nccc(-c3nn([C@H]4CCCNC4)c4ccccc34)c21: 100 to 316 nM

IC50 measured on CC1(O)C(=O)Nc2nccc(-c3cn(C4CCNCC4)c4ccccc34)c21 (stereo not drawn) = 100 to 316 nM

Entry Cc1nn(C2CCNCC2)cc1-c1ccnc2[nH]c(=O)[nH]c12 — recorded IC50 = > 1000 nM

The recorded IC50 for entry CC[C@@]1(C)C(=O)Nc2nccc(-c3nn([C@@H]4CCNC[C@@H]4F)c4ccc(F)cc34)c21 (single isomer, unassigned) equals 31.6 to 100 nM

Reported IC50 ( CC1(O)C(=O)Nc2nccc(-c3nn(C4CCNCC4)c4ccccc34)c21 (stereo not drawn) ) = 31.6 to 100 nM

According to the records, this molecule C[C@@]1(O)C(=O)Nc2nccc(-c3nn(C4(CC#N)CCC4)c4ccccc34)c21 (single isomer, unassigned) displays IC50 of 10 to 31.6 nM

Lab book: IC50 of CC1(O)C(=O)Nc2nccc(-c3cn([C@H]4CCNC4)c4ccccc34)c21 (stereo partly drawn) noted as 316 to 1000 nM

The molecule identified as CCC1(C)C(=O)Nc2nccc(-c3nn([C@H]4CCNC4)c4ccccc34)c21 (stereo partly drawn) registered its IC50 at 31.6 to 100 nM

* * *

IC50: recorded values
- Test system: IL-2 secretion by human effector memory T cells (TEM)
- Test protocol: Effector memory T cells IL-2 release assay
- Assay type: cell-based
- Recorded conditions: T-cell; human CD4+ TEM cells, CD3/CD28 bead stimulation, 24 h; binned A to G; read-out: PKC-theta IL2 pIC50 (binned) (converted)
- Description: Test compound-mediated inhibition of NFκB signalling in T cells was assessed by quantification of the IL-2 secretion by human effector memory T cells (TEM) upon treatment and stimulation. Human TEM cells were isolated from buffy coats of healthy donors obtained from the French blood bank. […]

Examples with their reported IC50 follow.
• C[C@]1(O)C(=O)Nc2nccc(-c3nn(C4CCNCC4)c4ccccc34)c21 (single isomer, unassigned) = 0.01 to 0.0316 µM
• C[C@@]1(O)C(=O)Nc2nccc(-c3nn(C4(CC#N)CCC4)c4cc(F)ccc34)c21 (single isomer, unassigned) = 0.01 to 0.0316 µM
• CC1(C)C(=O)Nc2nccc(-c3nn([C@H]4CCNC4)c4cc(Cl)ccc34)c21 = 0.1 to 0.316 µM
• CC[C@@]1(C)C(=O)Nc2nccc(-c3nn([C@@H]4CCNC[C@@H]4F)c4cc(F)ccc34)c21 (single isomer, unassigned) = 0.0316 to 0.1 µM
• CO[C@]1(C)C(=O)Nc2nccc(-c3nn(C4(CC#N)CCC4)c4ccccc34)c21 (single isomer, unassigned) = 0.316 to 1 µM

Per the records, this compound ( CC[C@@]1(O)C(=O)Nc2nccc(-c3nn(C4(CC#N)CCC4)c4ccccc34)c21 (single isomer, unassigned) ) has IC50 equal to 0.01 to 0.0316 µM
